experimental-target: human α4β7 (Homo sapiens, UniProt P13612+P26010)
Construct: expressed in transfected cells
Sequence (P13612 34-1032): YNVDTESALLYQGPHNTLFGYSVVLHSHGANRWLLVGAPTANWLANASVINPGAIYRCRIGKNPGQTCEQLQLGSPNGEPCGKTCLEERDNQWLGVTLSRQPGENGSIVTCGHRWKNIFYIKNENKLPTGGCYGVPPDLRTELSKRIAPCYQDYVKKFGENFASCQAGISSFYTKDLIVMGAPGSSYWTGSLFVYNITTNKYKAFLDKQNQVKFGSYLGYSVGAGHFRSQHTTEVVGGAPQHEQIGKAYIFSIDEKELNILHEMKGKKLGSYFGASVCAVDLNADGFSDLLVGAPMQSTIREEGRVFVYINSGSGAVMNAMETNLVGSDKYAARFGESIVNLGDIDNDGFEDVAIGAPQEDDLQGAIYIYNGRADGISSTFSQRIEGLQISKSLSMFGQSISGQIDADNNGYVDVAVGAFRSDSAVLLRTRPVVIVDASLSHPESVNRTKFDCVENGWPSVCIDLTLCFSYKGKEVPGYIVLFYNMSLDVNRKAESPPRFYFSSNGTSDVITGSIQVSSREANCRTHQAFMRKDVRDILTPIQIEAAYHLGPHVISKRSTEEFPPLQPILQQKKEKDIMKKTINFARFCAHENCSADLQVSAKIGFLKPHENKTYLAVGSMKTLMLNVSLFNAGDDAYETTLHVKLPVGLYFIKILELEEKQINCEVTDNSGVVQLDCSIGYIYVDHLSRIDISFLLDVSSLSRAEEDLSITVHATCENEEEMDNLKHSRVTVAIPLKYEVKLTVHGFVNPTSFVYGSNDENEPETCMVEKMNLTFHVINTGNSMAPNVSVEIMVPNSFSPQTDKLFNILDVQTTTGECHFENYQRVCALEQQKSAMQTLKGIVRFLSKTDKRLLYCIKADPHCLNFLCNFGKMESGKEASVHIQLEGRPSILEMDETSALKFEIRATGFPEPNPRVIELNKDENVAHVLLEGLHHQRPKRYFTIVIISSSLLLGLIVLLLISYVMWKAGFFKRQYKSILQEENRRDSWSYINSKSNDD
Sequence (P26010 20-798): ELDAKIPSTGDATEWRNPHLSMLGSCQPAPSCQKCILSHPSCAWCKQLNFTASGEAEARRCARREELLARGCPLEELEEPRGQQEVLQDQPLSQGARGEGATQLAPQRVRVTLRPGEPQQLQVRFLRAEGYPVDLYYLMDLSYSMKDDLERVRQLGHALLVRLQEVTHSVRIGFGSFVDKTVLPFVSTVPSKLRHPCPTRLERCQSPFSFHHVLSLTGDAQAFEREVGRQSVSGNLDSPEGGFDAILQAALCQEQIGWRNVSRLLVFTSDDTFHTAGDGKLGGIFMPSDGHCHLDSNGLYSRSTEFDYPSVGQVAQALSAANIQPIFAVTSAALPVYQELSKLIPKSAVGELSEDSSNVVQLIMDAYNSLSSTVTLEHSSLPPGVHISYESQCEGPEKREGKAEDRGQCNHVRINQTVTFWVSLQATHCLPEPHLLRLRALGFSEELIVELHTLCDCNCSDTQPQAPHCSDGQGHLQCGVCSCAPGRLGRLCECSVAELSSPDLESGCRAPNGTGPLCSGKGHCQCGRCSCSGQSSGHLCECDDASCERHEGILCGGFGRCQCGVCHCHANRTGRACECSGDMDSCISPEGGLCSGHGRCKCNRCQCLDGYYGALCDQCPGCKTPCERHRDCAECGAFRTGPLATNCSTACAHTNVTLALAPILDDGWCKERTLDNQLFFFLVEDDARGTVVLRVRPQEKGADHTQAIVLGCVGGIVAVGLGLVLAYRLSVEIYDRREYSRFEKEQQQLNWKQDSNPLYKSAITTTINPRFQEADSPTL
protocol-notes: α4β7-K562 Cell Adhesion Assay (α4β7 Mediated Adhesion/VCAM-1)
Format: cell-based
condition-details: K562 cells expressing human α4β7 on recombinant hVCAM-1; read-out: α4β7 IC50
pIC50: −log10 of the molar value.
Could you label it t if measured pIC50 is 7 or higher, and f otherwise?

See these solved cases before continuing.
# compound, label-class
rows = [
    ("O=C(Nc1ccc(CC(NC(=O)C2C3CCC(CC3)N2C(=O)Nc2cccc(Cl)c2)C(=O)O)cc1)c1c(Cl)cncc1Cl (stereo not drawn)", "f"),
    ("CC(C)(C)OC(=O)N1CCN(CCC(=O)N2C3CCC(CC3)C2C(=O)NC(Cc2ccc(NC(=O)c3c(Cl)cncc3Cl)cc2)C(=O)O)CC1 (stereo not drawn)", "f"),
    ("O=C(Nc1ccc(CC(NC(=O)C2C3CCC(CC3)N2C(=O)Cc2ccc3ccccc3c2)C(=O)O)cc1)c1c(Cl)cncc1Cl (stereo not drawn)", "t"),
]

Challenge: Please tell me: is the compound O=C(Nc1ccc(CC(NC(=O)C2C3CCC(CC3)N2C(=O)Cc2cccs2)C(=O)O)cc1)c1c(Cl)cncc1Cl (stereo not drawn) at or over 7 in terms of pIC50?
Response given: t

Challenge: Please tell me: is the compound Cc1ccc(CCN2C3CCC(CC3)C2C(=O)NC(Cc2ccc(NC(=O)c3c(Cl)cncc3Cl)cc2)C(=O)O)cc1 (stereo not drawn) at or over 7 in terms of pIC50?
Response given: t

Challenge: Please tell me: is the compound COc1ccccc1C=CC(=O)N1C2CCC(CC2)C1C(=O)NC(Cc1ccc(NC(=O)c2c(Cl)cncc2Cl)cc1)C(=O)O (stereo not drawn) at or over 7 in terms of pIC50?
Response given: t

Challenge: Please tell me: is the compound O=C(Nc1ccc(CC(NC(=O)C2C3CCC(CC3)N2Cc2ccc(Cl)s2)C(=O)O)cc1)c1c(Cl)cncc1Cl (stereo not drawn) at or over 7 in terms of pIC50?
Response given: f

Challenge: Please tell me: is the compound O=C(Nc1ccc(CC(NC(=O)C2C3CCC(CC3)N2C(=O)Cc2ccsc2)C(=O)O)cc1)c1c(Cl)cncc1Cl (stereo not drawn) [Cpd 3] at or over 7 in terms of pIC50?
Response given: t

Challenge: Please tell me: is the compound O=C(Nc1ccc(CC(NC(=O)C2C3CCC(CC3)N2C(=O)CC2CCOCC2)C(=O)O)cc1)c1c(Cl)cncc1Cl (stereo not drawn) at or over 7 in terms of pIC50?
Response given: t

Challenge: Please tell me: is the compound O=C(Nc1ccc(CC(NC(=O)C2C3CCC(CC3)N2C(=O)OCc2ccccc2)C(=O)O)cc1)c1c(Cl)cncc1Cl (stereo not drawn) [Cpd 42] at or over 7 in terms of pIC50?
Response given: t
